The compounds listed here are annotated with their EC50.
- TESTED_TARGET: Sodium- and chloride-dependent glycine transporter 2 (Homo sapiens, UniProt Q9Y345)
- Sequence (Q9Y345 whole entry): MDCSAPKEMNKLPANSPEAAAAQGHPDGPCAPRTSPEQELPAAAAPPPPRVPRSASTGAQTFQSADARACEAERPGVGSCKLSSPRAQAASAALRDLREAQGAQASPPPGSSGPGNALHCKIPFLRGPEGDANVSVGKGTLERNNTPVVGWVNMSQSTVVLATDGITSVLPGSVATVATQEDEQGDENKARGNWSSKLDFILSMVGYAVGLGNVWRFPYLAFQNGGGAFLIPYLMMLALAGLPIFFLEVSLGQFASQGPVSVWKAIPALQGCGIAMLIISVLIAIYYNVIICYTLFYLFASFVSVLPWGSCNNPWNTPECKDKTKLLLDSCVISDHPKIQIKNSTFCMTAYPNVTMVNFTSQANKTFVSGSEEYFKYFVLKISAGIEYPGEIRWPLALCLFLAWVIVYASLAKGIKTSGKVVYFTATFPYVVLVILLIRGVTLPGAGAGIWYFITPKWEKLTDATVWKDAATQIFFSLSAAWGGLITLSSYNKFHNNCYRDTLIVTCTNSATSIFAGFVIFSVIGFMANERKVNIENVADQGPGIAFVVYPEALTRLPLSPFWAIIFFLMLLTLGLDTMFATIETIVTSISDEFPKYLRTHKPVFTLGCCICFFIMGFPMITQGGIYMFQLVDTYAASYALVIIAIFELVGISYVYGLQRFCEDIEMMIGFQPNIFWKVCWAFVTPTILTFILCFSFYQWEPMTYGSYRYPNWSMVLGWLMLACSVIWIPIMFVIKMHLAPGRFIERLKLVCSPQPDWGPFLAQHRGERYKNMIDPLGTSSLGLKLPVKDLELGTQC
- PROTOCOL_SUMMARY: Inhibition of [3H]glycine uptake at human glycine transporter 2 expressed in CHO cells by scintillation counter
Numbers only; they are read as µM.

Below, each entry is followed by its recorded EC50 result.
CC(=O)c1ccc(N2CCN(C(=O)c3cc([N+](=O)[O-])ccc3N3CCCCC3)CC2)c(F)c1 = 4
Cc1ccccc1N1CCN(C(=O)c2cc([N+](=O)[O-])ccc2N2CCOCC2)CC1 = 14.2
O=C(c1cc([N+](=O)[O-])ccc1N1CCOCC1)N1CCN(c2ccccc2Cl)CC1 = 11.2
Cc1cccc(N2CCN(C(=O)c3cc([N+](=O)[O-])ccc3N3CCOCC3)CC2)c1 = 4

Test item `CC(=O)c1ccc(N2CCN(C(=O)c3cccc([N+](=O)[O-])c3)CC2)c(F)c1` ; Sodium- and chloride-dependent glycine transporter 2 (Homo sapiens, UniProt Q9Y345); reported EC50 was 24.5

###

- PROTOCOL_SUMMARY: Cmax in mouse brain at 10 mg/kg, po
- Type: ADME, organism-based
- Design: dose 10 mg/kg, route oral
MEASURED_PARAMETER: Cmax (ng/g)
Numbers only; they are read as ng/g.

Short answer for `CS(=O)(=O)c1ccc(OCC2CC2)c(C(=O)N2CCN(c3ccc(C#N)cc3F)CC2)c1` : Cmax was 373

###

- PROTOCOL_SUMMARY: Ratio of drug level in brain to plasma in mouse at 10 mg/kg, po
- Assay type: ADME, organism-based
- Set-up: dose 10 mg/kg, route oral
- ASSAY_CONDITIONS: read-out: BPR
MEASURED_PARAMETER: Kp
Please reply with the number alone, leaving off any unit.

Short answer for `CS(=O)(=O)c1ccc(OCC2CC2)c(C(=O)N2CCN(c3ccc(C#N)cc3F)CC2)c1` : Kp was 0.1

###

The compounds listed here are annotated with their pEC50.
- TESTED_TARGET: Sodium- and chloride-dependent glycine transporter 1 (Homo sapiens, UniProt P48067)
- Sequence (P48067 whole entry): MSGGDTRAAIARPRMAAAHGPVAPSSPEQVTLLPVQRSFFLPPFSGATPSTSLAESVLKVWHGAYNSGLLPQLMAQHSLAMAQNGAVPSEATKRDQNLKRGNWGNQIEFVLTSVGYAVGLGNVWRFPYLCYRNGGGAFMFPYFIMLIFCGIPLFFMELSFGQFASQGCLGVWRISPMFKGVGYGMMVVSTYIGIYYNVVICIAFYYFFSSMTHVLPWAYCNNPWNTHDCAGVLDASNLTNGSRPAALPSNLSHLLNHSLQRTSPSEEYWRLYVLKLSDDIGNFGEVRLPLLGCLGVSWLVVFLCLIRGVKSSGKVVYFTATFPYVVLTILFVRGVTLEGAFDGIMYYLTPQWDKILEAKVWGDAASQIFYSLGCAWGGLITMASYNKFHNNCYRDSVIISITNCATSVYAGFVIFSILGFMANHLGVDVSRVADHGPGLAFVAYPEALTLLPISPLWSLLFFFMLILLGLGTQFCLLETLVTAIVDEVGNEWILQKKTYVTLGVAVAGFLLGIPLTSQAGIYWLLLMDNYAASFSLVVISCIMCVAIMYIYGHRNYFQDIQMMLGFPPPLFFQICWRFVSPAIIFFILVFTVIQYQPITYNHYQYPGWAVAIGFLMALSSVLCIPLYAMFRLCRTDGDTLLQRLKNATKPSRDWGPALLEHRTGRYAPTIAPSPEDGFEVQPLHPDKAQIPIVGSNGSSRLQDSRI
- PROTOCOL_SUMMARY: Inhibition of [3H]glycine uptake at human glycine transporter 1 expressed in CHO cells by scintillation counter
Note on pEC50: it is the negative log10 of concentration, concentration in mol/L.

Below, each entry is followed by its recorded pEC50 result.
CC(=O)c1ccc(N2CCN(C(=O)c3cc(C(F)(F)F)ccc3N3CCOCC3)CC2)c(F)c1 = 4.59
O=C(c1cc([N+](=O)[O-])ccc1N1CCOCC1)N1CCN(c2ccc(C(F)(F)F)cc2F)CC1 = 7.39

Short answer for `O=C(c1cc([N+](=O)[O-])ccc1N1CCOCC1)N1CCN(c2cccc(C(F)(F)F)c2)CC1` : pEC50 was 6.40

###

- PROTOCOL_SUMMARY: Oral bioavailability in mouse at 10 mg/kg
- Format: ADME, organism-based
- ASSAY_CONDITIONS: in vivo
MEASURED_PARAMETER: bioavailability (%)
Numbers only; they are read as %.

Short answer for `CS(=O)(=O)c1ccc(OCC2CC2)c(C(=O)N2CCN(c3ccc(C#N)cc3F)CC2)c1` : bioavailability was 100

###

The compounds listed here are annotated with their Ratio EC50.
- Species on record: Homo sapiens
- PROTOCOL_SUMMARY: Selectivity ratio of IC50 for human glycine transporter 2 to IC50 for human glycine transporter 1
Please reply with the number alone, leaving off any unit.

Below, each entry is followed by its recorded Ratio EC50 result.
CC(=O)c1ccc(N2CCN(C(=O)c3cc(C(F)(F)F)ccc3N3CCOCC3)CC2)c(F)c1 = 0.4
CC(=O)c1ccc(N2CCN(C(=O)c3cc(C#N)ccc3N3CCOCC3)CC2)c(F)c1 = 72

Switching to the query record.
Short answer for `CC(=O)c1ccc(N2CCN(C(=O)c3cc([N+](=O)[O-])ccc3N3CCOCC3)CC2)c(F)c1` : Ratio EC50 was 320

###

The compounds listed here are annotated with their EC50.
- TESTED_TARGET: Sodium- and chloride-dependent glycine transporter 1 (Homo sapiens, UniProt P48067)
- PROTOCOL_SUMMARY: Inhibition of [3H]glycine uptake at human glycine transporter 1 expressed in CHO cells by scintillation counter
Numbers only; they are read as nM.

Below, each entry is followed by its recorded EC50 result.
CC(=O)c1ccc(N2CCN(C(=O)c3cc(S(C)(=O)=O)ccc3N3CCOCC3)CC2)c(F)c1 = 70
Cc1cccc(N2CCN(C(=O)c3cc([N+](=O)[O-])ccc3N3CCOCC3)CC2)c1 = 1100
O=C(c1cc([N+](=O)[O-])ccc1N1CCOCC1)N1CCN(c2ncc(C(F)(F)F)cc2Cl)CC1 = 47

Short answer for `CNS(=O)(=O)c1ccc(N2CCOCC2)c(C(=O)N2CCN(c3ccc(C(C)=O)cc3F)CC2)c1` : EC50 was 100

###

The molecules listed here are annotated with their EC50.
- TESTED_TARGET: Sodium- and chloride-dependent glycine transporter 1 (Homo sapiens, UniProt P48067)
- PROTOCOL_SUMMARY: Inhibition of [3H]glycine uptake at human glycine transporter 1 expressed in CHO cells by scintillation counter
Numbers only; they are read as nM.

Below, each entry is followed by its recorded EC50 result.
O=C(c1cc([N+](=O)[O-])ccc1N1CCOCC1)N1CCN(c2ccccc2Cl)CC1 = 1400
O=C(c1cc([N+](=O)[O-])ccc1N1CCOCC1)N1CCN(c2ccc(C(F)(F)F)c(F)c2)CC1 = 37
O=C(c1cc([N+](=O)[O-])ccc1N1CCOCC1)N1CCN(c2ccc(C(F)(F)F)cc2)CC1 = 100
CC(=O)c1ccc(N2CCN(C(=O)c3cc(S(N)(=O)=O)ccc3N3CCOCC3)CC2)c(F)c1 = 120
CC(=O)c1ccc(N2CCN(C(=O)c3cc(S(C)(=O)=O)ccc3SC(C)C)CC2)c(F)c1 = 15

Test item `CS(=O)(=O)c1ccc(N2CCN(C(=O)c3cc([N+](=O)[O-])ccc3N3CCOCC3)CC2)c(F)c1` ; Sodium- and chloride-dependent glycine transporter 1 (Homo sapiens, UniProt P48067); reported EC50 was 40

###

- PROTOCOL_SUMMARY: Volume of distribution at steady state in mouse at 2 mg/kg, iv
- Assay type: ADME, organism-based
- Set-up: dose 2 mg/kg, route intravenous
- ASSAY_CONDITIONS: in vivo, read-out: Vdss
MEASURED_PARAMETER: Vd
Report the figure along with its unit, number first.

Short answer for `CS(=O)(=O)c1ccc(OCC2CC2)c(C(=O)N2CCN(c3ccc(C#N)cc3F)CC2)c1` : Vd was 2.8 L/kg

###

- TESTED_TARGET: Sodium- and chloride-dependent glycine transporter 1 (Homo sapiens)
- PROTOCOL_SUMMARY: Inhibition of [3H]glycine uptake at human glycine transporter 1 expressed in CHO cells by scintillation counter
MEASURED_PARAMETER: pEC50
Note on pEC50: it is the negative log10 of concentration, concentration in mol/L.

Below, each entry is followed by its recorded pEC50 result.
CCCS(=O)(=O)c1ccc(N2CCOCC2)c(C(=O)N2CCN(c3ccc(C(C)=O)cc3F)CC2)c1 = 5.80
CC(C)Oc1ccc(S(C)(=O)=O)cc1C(=O)N1CCN(c2ccc(C(F)(F)F)cc2)CC1 = 7.09
O=C(c1cc([N+](=O)[O-])ccc1N1CCOCC1)N1CCN(c2cccc(Cl)c2)CC1 = 6.15
N#Cc1cc(C(F)(F)F)ccc1N1CCN(C(=O)c2cc([N+](=O)[O-])ccc2N2CCOCC2)CC1 = 7.82

Short answer for `N#Cc1ccc(N2CCN(C(=O)c3cc([N+](=O)[O-])ccc3N3CCOCC3)CC2)c(F)c1` : pEC50 was 7.52

###

- PROTOCOL_SUMMARY: Membrane permeability by PAMPA
- Type: ADME
- ASSAY_CONDITIONS: read-out: permeability
The molecules listed here are annotated with their Papp.
Numbers only; they are read as ×10⁻⁶ cm/s.

Below, each entry is followed by its recorded Papp result.
CS(=O)(=O)c1ccc(OCC2CC2)c(C(=O)N2CCN(c3ccc(C#N)cc3F)CC2)c1 = 3.2
CC(=O)c1ccc(N2CCN(C(=O)c3cc([N+](=O)[O-])ccc3N3CCOCC3)CC2)c(F)c1 = 4.7

Short answer for `CC(=O)c1ccc(N2CCN(C(=O)c3cc(S(C)(=O)=O)ccc3N3CCOCC3)CC2)c(F)c1` : Papp was 3.1

Short answer for `CC(=O)c1ccc(N2CCN(C(=O)c3cc(S(N)(=O)=O)ccc3N3CCOCC3)CC2)c(F)c1` : Papp was 3.3

Short answer for `CNS(=O)(=O)c1ccc(N2CCOCC2)c(C(=O)N2CCN(c3ccc(C(C)=O)cc3F)CC2)c1` : Papp was 5.3

Short answer for `CC(=O)c1ccc(N2CCN(C(=O)c3cc(C#N)ccc3N3CCOCC3)CC2)c(F)c1` : Papp was 6.1
